- assayComment: Human HepG2 cell viability assay in 384 well format
- Type: toxicity, cell-based
- Design: dose 125 nL, time 70.5 hour; concentration not given beside the values
- experimentalParameters: HepG2 cells, read-out: Inhibition
Give measured cytotoxicity at 70.5 h for each item. Keep answers brief.
Response body: numeric value in %, unit text excluded.

Query: Looking for the measured cytotoxicity at 70.5 h of Cc1cccc2c1nc1n2[C@@H](CNC2CCCCC2)COC1 , can you help?
Reply: 8.3

Query: Looking for the measured cytotoxicity at 70.5 h of Cc1nc(C)n(CC2CCCCN2CC(=O)Nc2nncs2)n1 (stereo unspecified) , can you help?
Reply: -1.06

Query: Looking for the measured cytotoxicity at 70.5 h of CCCn1ncc(CN(Cc2cccnc2)Cc2cccs2)c1C , can you help?
Reply: 21.4

Query: Looking for the measured cytotoxicity at 70.5 h of CN(c1ccc(F)c(F)c1)S(=O)(=O)c1cc(C(=O)O)cs1 , can you help?
Reply: -6.55

Query: Looking for the measured cytotoxicity at 70.5 h of COc1ccc(-c2ccc(C(=O)NS(C)(=O)=O)c(F)c2)c(F)c1 , can you help?
Reply: -6.13

Query: Looking for the measured cytotoxicity at 70.5 h of CN(Cc1ccco1)C[C@H]1OC[C@@H]2CCN(Cc3ccncc3)C[C@@H]21 , can you help?
Reply: 15.7

----------
- assayComment: Human HepG2 cell viability assay in 384 well format
- Type: toxicity, cell-based
- Design: dose 125 nL, time 70.5 hour; concentration not given beside the values
- experimentalParameters: HepG2 cells, read-out: Inhibition
Give measured cytotoxicity at 70.5 h for each item. Keep answers brief.
Response body: numeric value in %, unit text excluded.

Query: Looking for the measured cytotoxicity at 70.5 h of Cc1nc(C)c(C(=O)N2CCc3nnc(C4CCCCN4C)n3CC2)o1 (centres undefined) , can you help?
Reply: 0.605

Query: Looking for the measured cytotoxicity at 70.5 h of O=C(Nc1cc(C(F)(F)F)c[nH]c1=O)c1ccco1 , can you help?
Reply: 64

Query: Looking for the measured cytotoxicity at 70.5 h of COc1ccc(C(=O)N2CCC3(CC2)c2ccccc2[C@@H](N)[C@@H]3O)cc1 , can you help?
Reply: 0.101

Query: Looking for the measured cytotoxicity at 70.5 h of Cc1cccc(C(=O)N2CCc3c(COCC4CC4)cncc3C2)n1 , can you help?
Reply: -10.4

Query: Looking for the measured cytotoxicity at 70.5 h of CC1CS(=O)(=O)CCN1CCCc1ccc(C(F)(F)F)cc1 (centres undefined) , can you help?
Reply: -10.6

Query: Looking for the measured cytotoxicity at 70.5 h of Cn1cc(CN2CCC[C@]3(C[C@H](Oc4ccccn4)CO3)C2)cn1 , can you help?
Reply: -7.75

Query: Looking for the measured cytotoxicity at 70.5 h of Cc1noc(CN(C)C(=O)CCn2cnc3ccccc32)n1 , can you help?
Reply: -13.9

Query: Looking for the measured cytotoxicity at 70.5 h of NC(=O)NC(CC(=O)N1CCc2sccc2C1)c1ccccc1F (centres undefined) , can you help?
Reply: -17.5

Query: Looking for the measured cytotoxicity at 70.5 h of Cc1nc(NC(=O)c2nn(-c3ccc(F)cc3C)cc2O)n[nH]1 , can you help?
Reply: -14.6

Query: Looking for the measured cytotoxicity at 70.5 h of O=C(c1ccno1)N1C[C@@H](F)[C@@H](OCc2nc3ccccc3o2)C1 , can you help?
Reply: 0.816

Query: Looking for the measured cytotoxicity at 70.5 h of CCOc1cc(C(=O)N2CCCC(n3cncn3)C2)ccc1C (centres undefined) , can you help?
Reply: -20.7

Query: Looking for the measured cytotoxicity at 70.5 h of CSc1ncc(CN(C)C(C)c2cccnc2)cn1 (centres undefined) , can you help?
Reply: -0.91

Query: Looking for the measured cytotoxicity at 70.5 h of Cc1cc2nc(SCC(=O)N3CCOCC3)n(CC(C)C)c(=O)c2[nH]1 , can you help?
Reply: -7.46

Query: Looking for the measured cytotoxicity at 70.5 h of CN(Cc1nc(-c2ccoc2)no1)C1CCCN(c2cccnn2)C1 (centres undefined) , can you help?
Reply: 1.16

Query: Looking for the measured cytotoxicity at 70.5 h of CCc1nnsc1C(=O)NCc1c(C)nn(CCOC)c1C , can you help?
Reply: -7.41

Query: Looking for the measured cytotoxicity at 70.5 h of COCCOc1ccnc(-c2noc([C@@H]3CCCN3CC3CC3)n2)c1 , can you help?
Reply: -9.26

Query: Looking for the measured cytotoxicity at 70.5 h of CCC(C)(C)NC(=O)CN1C=Nc2ccccc2S1(=O)=O , can you help?
Reply: -5.89

Query: Looking for the measured cytotoxicity at 70.5 h of O=C(O)c1c[nH]c2cc(NS(=O)(=O)c3cccc(F)c3F)ccc12 , can you help?
Reply: -9.73

Query: Looking for the measured cytotoxicity at 70.5 h of CC(C)NC(=O)c1nnn(-c2cccc(C(F)(F)F)c2)c1N , can you help?
Reply: -4.84

Query: Looking for the measured cytotoxicity at 70.5 h of O=C(CCc1ccc2c(c1)OCO2)Nc1cccnc1-n1cncn1 , can you help?
Reply: -2.15

Query: Looking for the measured cytotoxicity at 70.5 h of CCOCCN1CCC=C(C2c3nc[nH]c3CCN2C(C)=O)C1 (centres undefined) , can you help?
Reply: 0.27

Query: Looking for the measured cytotoxicity at 70.5 h of Nc1ncnc2[nH]c(N3CCCCC3)nc12 , can you help?
Reply: -6.41

Query: Looking for the measured cytotoxicity at 70.5 h of COc1ccccc1-c1cc(NC(=O)CCS(=O)(=O)C2CCCC2)[nH]n1 , can you help?
Reply: 25.9

Query: Looking for the measured cytotoxicity at 70.5 h of CC(C)(C)C(O)CN1CCN(CCOCC(F)(F)F)CC1 (centres undefined) , can you help?
Reply: -9.97

----------
Give measured cytotoxicity at 70.5 h for each item. Keep answers brief.
- assayComment: Human HepG2 cell viability assay in 384 well format
- Format: toxicity, cell-based
- Parameters: dose 125 nL, time 70.5 hour; concentration not given beside the values
- experimentalParameters: HepG2 cells, read-out: Inhibition
Response body: numeric value in %, unit text excluded.

Query: Looking for the measured cytotoxicity at 70.5 h of Cc1cnn(CC2CCCCN2C(=O)c2cc(Cl)c[nH]2)c1 (stereo unspecified) , can you help?
Reply: 7.01

Query: Looking for the measured cytotoxicity at 70.5 h of Nc1nc2c(c(NC3CCCC3)n1)CCN(C(=O)C1CCOC1)CC2 (stereo unspecified) , can you help?
Reply: 11.4

Query: Looking for the measured cytotoxicity at 70.5 h of O=C(Nc1ccc(-n2cccn2)cc1)N1C[C@H](O)[C@@H](N2CCOCC2)C1 , can you help?
Reply: -13.4

Query: Looking for the measured cytotoxicity at 70.5 h of COc1cccc2c1OCC(NCc1cnn(-c3ccccc3)c1)C2 (stereo unspecified) , can you help?
Reply: 14.4

Query: Looking for the measured cytotoxicity at 70.5 h of CCN(CC)C(=O)[C@@H]1C[C@H](n2cc(-c3ccccn3)nn2)CN1 , can you help?
Reply: 12

Query: Looking for the measured cytotoxicity at 70.5 h of CCn1cc(CN(C)S(=O)(=O)c2cc(Cl)ccc2Cl)cn1 , can you help?
Reply: 22.9

Query: Looking for the measured cytotoxicity at 70.5 h of Cc1ccc(-n2cc(C(=O)N3CCn4c(C)nnc4C3)nn2)cc1 , can you help?
Reply: 26.8

Query: Looking for the measured cytotoxicity at 70.5 h of CC(C)NC(=O)[C@H]1C[C@@H]2[C@@H](C1)OCCN2CC1CC1 , can you help?
Reply: -3.31

Query: Looking for the measured cytotoxicity at 70.5 h of CC(C)(C)n1ncc2c1NC(=O)CSC2c1ccc2c(c1)OCCO2 (stereo unspecified) , can you help?
Reply: -13

Query: Looking for the measured cytotoxicity at 70.5 h of O=C(NC[C@H]1OC[C@@H](NCc2ccccc2F)[C@@H]1O)c1ccc(F)cc1 , can you help?
Reply: -3.67

Query: Looking for the measured cytotoxicity at 70.5 h of CCc1nc(CNc2cc(C)nc(-c3cccnc3)n2)cs1 , can you help?
Reply: 24.1

----------
- assayComment: Human HepG2 cell viability assay in 384 well format
- Type: toxicity, cell-based
- Set-up: dose 125 nL, time 70.5 hour; concentration not given beside the values
- experimentalParameters: HepG2 cells, read-out: Inhibition
Give measured cytotoxicity at 70.5 h for each item. Keep answers brief.
Response body: numeric value in %, unit text excluded.

Query: Looking for the measured cytotoxicity at 70.5 h of CN(CC(=O)NC(Cc1ccccc1)C1CCCC1)S(C)(=O)=O (stereo unspecified) , can you help?
Reply: -3.31

Query: Looking for the measured cytotoxicity at 70.5 h of Cc1nnc2n1CCN(C(C(=O)NC1CC1)c1ccc(F)cc1)C2 (stereo unspecified) , can you help?
Reply: -3.54

Query: Looking for the measured cytotoxicity at 70.5 h of CC(c1ccccn1)N(C)Cc1ccc(-n2cncn2)cc1 (stereo unspecified) , can you help?
Reply: -8.14

Query: Looking for the measured cytotoxicity at 70.5 h of CC(O)CN(Cc1cccc(C(=O)N(C)C)c1)c1ccccc1 (stereo unspecified) , can you help?
Reply: -3.2

Query: Looking for the measured cytotoxicity at 70.5 h of CNC(=O)[C@H]1CC[C@@H]2[C@@H](CCN2c2ncccn2)O1 , can you help?
Reply: 3.25

Query: Looking for the measured cytotoxicity at 70.5 h of Cc1ccc(CC(=O)N2CCN(C(C)c3ccccc3F)CC2)cn1 (stereo unspecified) , can you help?
Reply: -2.9
